Each recorded value in this set is attributed to patent US20260102383A1.

- ASSAYED_TARGET: human LPAR1 (Homo sapiens, UniProt Q92633)
- Construct: host or cells: TangoEDG2-bla U2OS cells
- Sequence (Q92633 whole entry): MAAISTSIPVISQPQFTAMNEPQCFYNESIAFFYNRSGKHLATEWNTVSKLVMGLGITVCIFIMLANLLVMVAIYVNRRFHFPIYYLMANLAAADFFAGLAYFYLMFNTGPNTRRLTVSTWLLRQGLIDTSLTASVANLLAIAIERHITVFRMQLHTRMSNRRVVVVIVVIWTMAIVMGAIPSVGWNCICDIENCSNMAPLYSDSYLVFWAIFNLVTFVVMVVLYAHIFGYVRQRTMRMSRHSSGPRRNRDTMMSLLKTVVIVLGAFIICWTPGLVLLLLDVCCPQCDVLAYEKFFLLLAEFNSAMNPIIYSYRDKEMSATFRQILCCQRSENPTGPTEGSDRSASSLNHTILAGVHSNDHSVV
- TEST: Arrestin assay (Arrestin Reporter EDG2-bla U2OS), inhibition of LPA-stimulated signal
- Format: cell-based
- TEST_PARAMETERS: TangoEDG2-bla U2OS cells expressing human LPAR1; 0.25 μM LPA; read-out: Arrestin Reporter EDG2-bla U2OS Human Merged IC50
pIC50: −log10 of the molar value.
EXPERIMENTAL_READOUT: pIC50

Worked examples follow.
>  <COMPOUND>
CC(C)c1ccnn1C1(C(=O)Nc2ccc(Cl)cc2OC(F)F)CCN(CC(CO)C(=O)O)CC1 (stereo not shown)

>  <ASSAYED_TARGET>
human LPAR1 (Homo sapiens, UniProt Q92633)

>  <pIC50>
7.46

$$$$
>  <COMPOUND>
CC(C)c1ccnn1C1(C(=O)Nc2ccc(Cl)cc2OC(F)F)CCN([C@H]2C[C@@](NS(C)(=O)=O)(C(=O)O)C2)CC1

>  <ASSAYED_TARGET>
human LPAR1 (Homo sapiens, UniProt Q92633)

>  <pIC50>
6.75

$$$$
>  <COMPOUND>
CC(C)c1ccnn1C1(C(=O)Nc2ccc(Cl)cc2OC(F)F)CCN(CC2(C(=O)O)CC23CCOCC3)CC1 (stereo not shown)

>  <ASSAYED_TARGET>
human LPAR1 (Homo sapiens, UniProt Q92633)

>  <pIC50>
7.43

$$$$
>  <COMPOUND>
CC(C)c1ccnn1C1(C(=O)Nc2ccc(Cl)cc2OC(F)F)CCN(C[C@@H](C)C(=O)O)CC1

>  <ASSAYED_TARGET>
human LPAR1 (Homo sapiens, UniProt Q92633)

>  <pIC50>
7.69

$$$$

a. CC(C)c1ccnn1C1(C(=O)Nc2ccc(Cl)cc2OC(F)F)CCN(CC(C)(C)C(=O)O)CC1
b. CC(C)c1ccnn1C1(C(=O)Nc2ccc(Cl)cc2OC(F)F)CCN(CC(C(=O)O)c2cnn(C)c2)CC1 (stereo not shown)
c. CC(C)c1ccnn1C1(C(=O)Nc2ccc(Cl)cc2OC(F)F)CCN(CC(C(=O)O)C2CCOC(C)(C)C2)CC1 (stereo not shown)
Order the records so the highest pIC50 appears first and the lowest last. Form field (ranking): labels in requested order.
a, c, b

====

- ASSAYED_TARGET: human LPAR1 (Homo sapiens, UniProt Q92633)
- Construct: host or cells: TangoEDG2-bla U2OS cells
- TEST: Arrestin assay (Arrestin Reporter EDG2-bla U2OS), inhibition of LPA-stimulated signal
- Type: cell-based
- TEST_PARAMETERS: TangoEDG2-bla U2OS cells expressing human LPAR1; 0.25 μM LPA; read-out: Arrestin Reporter EDG2-bla U2OS Human Merged IC50
- Experimental: The inhibitory activity of compounds 15, 62, 77, 84 and 169 against LPAR1 was measured using an Arrestin assay in U2OS cells expressing human LPAR1. FreeStyle media was warmed in a 37° C. water bath. Cryo-preserved vial(s) of TangoEDG2-bla U2OS cells were rapidly thawed in a 37° C. water bath. […] Plate(s) were read on an Envision Plate Reader (Perkin Elmer) to read fluorescence; excitation at 409 nm with emission at 460 nm and 530 nm. […]
EXPERIMENTAL_READOUT: IC50 (nM)

>  <COMPOUND>
COC[C@H](CN1CCC(C(=O)Nc2ccc(Cl)cc2OC(F)F)(n2ncc3c2C(C)(C)OC3)CC1)C(=O)O [Compound 208]

>  <IC50 / nM>
94.4

$$$$

1. CC(C)c1ccnn1C1(C(=O)Nc2ccc(Cl)cc2OC(F)F)CCN([C@H]2C[C@](C(=O)O)(C(F)F)C2)CC1 [Compound 221]
2. CC(C)c1ccnn1C1(C(=O)Nc2ccc(Cl)cc2OC(F)F)CCN(CC2(C(=O)O)CCN(C(=O)C34CC(C3)C4)CC2)CC1 [Compound 69]
Which of these two has the smaller recorded IC50: 1 or 2 ? Mark your answer with the label of the selected entry.
2

====

- ASSAYED_TARGET: human LPAR1 (Homo sapiens, UniProt Q92633)
- Construct: host or cells: TangoEDG2-bla U2OS cells
- TEST: Arrestin assay (Arrestin Reporter EDG2-bla U2OS), inhibition of LPA-stimulated signal
- Type: cell-based
- TEST_PARAMETERS: TangoEDG2-bla U2OS cells expressing human LPAR1; 0.25 μM LPA; read-out: Arrestin Reporter EDG2-bla U2OS Human Merged IC50
EXPERIMENTAL_READOUT: IC50 (nM)

Worked examples follow.
>  <MOLECULE>
CCC(CC)(CN1CCC(C(=O)Nc2ccc(Cl)cc2OC(F)F)(n2nccc2C(C)C)CC1)C(=O)O [Compound 67]

>  <ASSAYED_TARGET>
human LPAR1 (Homo sapiens, UniProt Q92633)

>  <EXPERIMENTAL_READOUT>
IC50

>  <UNITS_LABEL>
nM

>  <ASSAY_RESULT>
20.9

$$$$
>  <MOLECULE>
CC(C)c1ccnn1C1(C(=O)Nc2ccc(Cl)cc2OC(F)F)CCN(CC(CCO)C(=O)O)CC1 (stereo not shown) [Compound 133]

>  <ASSAYED_TARGET>
human LPAR1 (Homo sapiens, UniProt Q92633)

>  <EXPERIMENTAL_READOUT>
IC50

>  <UNITS_LABEL>
nM

>  <ASSAY_RESULT>
74.8

$$$$
>  <MOLECULE>
CC(C)c1ccnn1C1(C(=O)Nc2ccc(Cl)cc2OC(F)F)CCN(CC2(C(=O)O)CCS(=O)(=O)CC2)CC1 [Compound 65]

>  <ASSAYED_TARGET>
human LPAR1 (Homo sapiens, UniProt Q92633)

>  <EXPERIMENTAL_READOUT>
IC50

>  <UNITS_LABEL>
nM

>  <ASSAY_RESULT>
9.87

$$$$

a. CC(C)CC(=O)N1CCC(CN2CCC(C(=O)Nc3ccc(Cl)cc3OC(F)F)(n3nccc3C(C)C)CC2)(C(=O)O)CC1 [Compound 82]
b. COC(=O)N[C@]1(C(=O)O)C[C@@H](N2CCC(C(=O)Nc3ccc(Cl)cc3OC(F)F)(n3nccc3C(C)C)CC2)C1 [Compound 131]
c. CCO[C@H](CN1CCC(C(=O)Nc2ccc(Cl)cc2OC(F)F)(n2nccc2C(C)C)CC1)C(=O)O [Compound 144]
Order the records so the highest IC50 appears first and the lowest last. Form field (ranking): labels in requested order.
b, c, a

====

- ASSAYED_TARGET: human LPAR1 (Homo sapiens)
- Construct: host or cells: TangoEDG2-bla U2OS cells
- TEST: Arrestin assay (Arrestin Reporter EDG2-bla U2OS), inhibition of LPA-stimulated signal
- Type: cell-based
- TEST_PARAMETERS: TangoEDG2-bla U2OS cells expressing human LPAR1; 0.25 μM LPA; read-out: Arrestin Reporter EDG2-bla U2OS Human Merged IC50
EXPERIMENTAL_READOUT: IC50 (nM)

Worked examples follow.
>  <MOLECULE>
COCCC(=O)N1CC(CN2CCC(C(=O)Nc3ccc(Cl)cc3OC(F)F)(n3nccc3C(C)C)CC2)(C(=O)O)C1

>  <UNITS_LABEL>
nM

>  <IC50>
158

$$$$
>  <MOLECULE>
CC(C)c1ccnn1C1(C(=O)Nc2ccc(Cl)cc2OC(F)F)CCN(C[C@H](CO)C(=O)O)CC1

>  <UNITS_LABEL>
nM

>  <IC50>
39.4

$$$$
>  <MOLECULE>
CC(C)c1ccnn1C1(C(=O)Nc2ccc(Cl)cc2OC(F)F)CCN(C[C@@H](CO)C(=O)O)CC1

>  <UNITS_LABEL>
nM

>  <IC50>
36.3

$$$$
>  <MOLECULE>
CC(C)c1ccnn1C1(C(=O)Nc2ccc(Cl)cc2OC(F)F)CCN([C@H]2C[C@@H](C(=O)O)C2)CC1 (single isomer, unassigned)

>  <UNITS_LABEL>
nM

>  <IC50>
34.5

$$$$

P. COCC(CN1CCC(C(=O)Nc2ccc(Cl)cc2OC(F)F)(n2nccc2C(C)C)CC1)C(=O)O (stereo not drawn)
Q. CC(C)c1c(Cl)cnn1C1(C(=O)Nc2ccc(Cl)cc2OC(F)F)CCN(C[C@@H](C(=O)O)C2CCOCC2)CC1 (single isomer, unassigned)
Which of these two has the smaller recorded IC50: P or Q ? Mark your answer with the label of the selected entry.
Q

====

- ASSAYED_TARGET: human LPAR1 (Homo sapiens, UniProt Q92633)
- Construct: host or cells: TangoEDG2-bla U2OS cells
- TEST: Arrestin assay (Arrestin Reporter EDG2-bla U2OS), inhibition of LPA-stimulated signal
- Assay type: cell-based
- TEST_PARAMETERS: TangoEDG2-bla U2OS cells expressing human LPAR1; 0.25 μM LPA; read-out: Arrestin Reporter EDG2-bla U2OS Human Merged IC50
EXPERIMENTAL_READOUT: IC50 (nM)

>  <MOLECULE>
CC(C)c1ccnn1C1(C(=O)Nc2ccc(Cl)cc2OC(F)F)CCN(CC2(C(=O)O)CCN(C(=O)Oc3ccc(F)cc3)CC2)CC1 [Compound 10]

>  <UNITS_LABEL>
nM

>  <IC50>
7.53

$$$$
>  <MOLECULE>
CC(C)c1ccnn1C1(C(=O)Nc2ccc(Cl)cc2OC(F)F)CCN(C[C@@H](CN2CCOCC2)C(=O)O)CC1 [Compound 238]

>  <UNITS_LABEL>
nM

>  <IC50>
126

$$$$
>  <MOLECULE>
CC(C)c1c(F)cnn1C1(C(=O)Nc2ccc(Cl)cc2OC(F)F)CCN(CC2(C(=O)O)CCC(=O)CC2)CC1 [Compound 153]

>  <UNITS_LABEL>
nM

>  <IC50>
30.4

$$$$

I. CC(C)c1ccnn1C1(C(=O)Nc2ccc(Cl)cc2OC(F)F)CCN(CC2(C(=O)O)CCC2)CC1 [Compound 45]
II. COC12CC(C(=O)N3CCC(CN4CCC(C(=O)Nc5ccc(Cl)cc5OC(F)F)(n5nccc5C(C)C)CC4)(C(=O)O)CC3)(C1)C2 [Compound 68]
III. CC(C)c1c(Cl)cnn1C1(C(=O)Nc2ccc(Cl)cc2OC(F)F)CCN(C[C@H](C(=O)O)C2CCOCC2)CC1 (single isomer, unassigned) [Compound 198]
List by increasing IC50. Form field (ranking): labels in requested order.
I, III, II
(I: 17.6 nM, III: 31.2 nM, II: 65.6 nM)

1. CC(C)c1ccnn1C1(C(=O)Nc2ccc(Cl)cc2OC(F)F)CCN(C[C@@]2(C(=O)O)CCOC(C)(C)C2)CC1 [Compound 172]
2. CO[C@H]1C[C@@H]([C@@H](CN2CCC(C(=O)Nc3ccc(Cl)cc3OC(F)F)(n3nccc3C(C)C)CC2)C(=O)O)C1 [Compound 227]
3. CC(C)c1ccnn1C1(C(=O)Nc2ccc(Cl)cc2OC(F)F)CCN(C[C@]2(C(=O)O)CCCO2)CC1 [Compound 21]
Order the records so the highest IC50 appears first and the lowest last. Form field (ranking): labels in requested order.
1, 2, 3

1. CCOCC1(C(=O)N2CCC(CN3CCC(C(=O)Nc4ccc(Cl)cc4OC(F)F)(n4nccc4C(C)C)CC3)(C(=O)O)CC2)CC1 [Compound 85]
2. CC(C)c1ccnn1C1(C(=O)Nc2ccc(Cl)cc2OC(F)F)CCN(C[C@@]2(C(=O)O)CCCCO2)CC1 (single isomer, unassigned) [Compound 38]
Parameter check: reported IC50 is higher for which label, 1 or 2 ? Mark your answer with the label of the selected entry.
1
(1: 53.7 nM, 2: 18.8 nM)

A. CC(C)c1ccnn1C1(C(=O)Nc2ccc(Cl)cc2OC(F)F)CCN(CC2(C(=O)O)CCN(C(=O)C34CC(F)(C3)C4)CC2)CC1 [Compound 72]
B. CC(C)c1ccnn1C1(C(=O)Nc2ccc(Cl)cc2OC(F)F)CCN([C@@H]2CO[C@H](C(=O)O)C2)CC1 (single isomer, unassigned) [Compound 137]
Which of these two has the smaller recorded IC50: A or B ? Mark your answer with the label of the selected entry.
A
(A: 18.8 nM, B: 57.2 nM)
